Values were extracted from ChEMBL document CHEMBL1130577.

OBSERVABLE: log10 Ki (log10 of the value in nM)
All values: log10 Ki [nM].

Response field log10 Ki (Human immunodeficiency virus type 1 protease (Human immunodeficiency virus 1)) for item `CC(C)N(C(=O)c1ccccc1)S(=O)(=O)CC[C@@H]1O[C@@H]1[C@H](Cc1ccccc1)NC(=O)[C@@H](NC(=O)OCc1ccccc1)C(C)(C)S(C)(=O)=O` : 0.56

Response field log10 Ki (Human immunodeficiency virus type 1 protease (Human immunodeficiency virus 1)) for item CC(C)(C)NS(=O)(=O)CC[C@@H]1O[C@@H]1[C@H](Cc1ccccc1)NC(=O)C(CC(N)=O)NC(=O)c1ccc2ccccc2n1 (stereo partly specified) : 1.10

Response field log10 Ki (Human immunodeficiency virus type 1 protease (Human immunodeficiency virus 1)) for item `CCN(c1ccccc1)S(=O)(=O)CC[C@@H]1O[C@@H]1[C@H](Cc1ccccc1)NC(=O)[C@@H](NC(=O)c1ccc2ccccc2n1)C(C)(C)S(C)(=O)=O` : 0.70

Response field log10 Ki (Human immunodeficiency virus type 1 protease (Human immunodeficiency virus 1)) for item `CCN(c1ccccc1)S(=O)(=O)CC[C@@H]1O[C@@H]1[C@H](Cc1ccccc1)NC(=O)[C@@H](NC(=O)OCc1ccccc1)C(C)(C)S(C)(=O)=O` : 0.66

Response field log10 Ki (Human immunodeficiency virus type 1 protease (Human immunodeficiency virus 1)) for item `CCN(C(C)C)S(=O)(=O)CC[C@@H]1O[C@@H]1[C@H](Cc1ccccc1)NC(=O)[C@@H](NC(=O)OCc1ccccc1)C(C)(C)S(C)(=O)=O` : -0.10

Response field log10 Ki (Human immunodeficiency virus type 1 protease (Human immunodeficiency virus 1)) for item `CCN(CC(C)C)S(=O)(=O)CC[C@@H]1O[C@@H]1[C@H](Cc1ccccc1)NC(=O)[C@@H](NC(=O)OCc1ccccc1)C(C)(C)S(C)(=O)=O` : 0.46
